assay: Phase 1 clinical trial, SRA737 in combination with gemcitabine dose escalation; type: in vivo, human; settings: human, plasma, oral, 40 mg; Day −7; mean, n = 6; read-out: AUC0-12
measurement_type: AUC(0-t)
Give me the value, and tack the unit on after it.

[Q] Item N#Cc1cnc(Nc2cc(NCC3CNCCO3)c(C(F)(F)F)cn2)cn1 (stereo not shown) : provide AUC(0-t)
[A] 486 ng·h/mL

----------
experiment: Phase 1 clinical trial, SRA737 in combination with gemcitabine dose escalation; format: in vivo, human; conditions: human, plasma, oral, 40 mg; Day 10; mean, n = 4; read-out: AUC0-12
measurement_type: AUC(0-t) (ng·h/mL)
// return numeric value only (unit: ng·h/mL, not printed)

[Q] Item N#Cc1cnc(Nc2cc(NCC3CNCCO3)c(C(F)(F)F)cn2)cn1 (stereo not shown) : provide AUC(0-t)
[A] 543

----------
assay: GLP 28-day repeat oral dose toxicity and toxicokinetics, monkey; type: in vivo; conditions: in vivo, po; Monkey Female; 2 mg/kg/day, daily dosing for 28 days
measurement_type: AUC(0-t)

[Q] Item N#Cc1cnc(Nc2cc(NCC3CNCCO3)c(C(F)(F)F)cn2)cn1 (stereo not shown) [SRA737] : provide AUC(0-t)
[A] 2580 ng·h/mL

----------
experiment: Phase 1 clinical trial, SRA737 in combination with gemcitabine dose escalation; type: in vivo; settings: human, plasma, oral, 20 mg, Day −7, mean, n = 8-10
measurement_type: Cmax (ng/mL)
// return numeric value only (unit: ng/mL, not printed)

[Q] Item N#Cc1cnc(Nc2cc(NCC3CNCCO3)c(C(F)(F)F)cn2)cn1 (stereo not shown) : provide Cmax
[A] 31.3

----------
experiment: GLP 28-day repeat oral dose toxicity and toxicokinetics, mouse; conditions: male, mouse, in vivo, po, 40 mg/kg/day
measurement_type: Cmax at 28 days (ng/mL)
// return numeric value only (unit: ng/mL, not printed)

[Q] Item N#Cc1cnc(Nc2cc(NCC3CNCCO3)c(C(F)(F)F)cn2)cn1 (stereo not shown) : provide Cmax at 28 days
[A] 3250

----------
experiment: Single dose PK, rat; format: in vivo; conditions: in vivo; Rat oral 10 mg/kg single dose
measurement_type: AUC(0-t) (ng·h/mL)
// return numeric value only (unit: ng·h/mL, not printed)

[Q] Item N#Cc1cnc(Nc2cc(NCC3CNCCO3)c(C(F)(F)F)cn2)cn1 (stereo not shown) : provide AUC(0-t)
[A] 1170

----------
test: GLP 28-day repeat oral dose toxicity and toxicokinetics, mouse; conditions: male, mouse, in vivo, po, 10 mg/kg/day
measurement_type: AUC(0-t) (ng·h/mL)
// return numeric value only (unit: ng·h/mL, not printed)

[Q] Item N#Cc1cnc(Nc2cc(NCC3CNCCO3)c(C(F)(F)F)cn2)cn1 (stereo not shown) [SRA737] : provide AUC(0-t)
[A] 4410

----------
experiment: GLP 28-day repeat oral dose toxicity and toxicokinetics, monkey; format: in vivo; settings: in vivo, po; Monkey Female; 2 mg/kg/day, daily dosing for 28 days
measurement_type: half-life (min)
// return numeric value only (unit: min, not printed)

[Q] Item N#Cc1cnc(Nc2cc(NCC3CNCCO3)c(C(F)(F)F)cn2)cn1 (stereo not shown) : provide half-life
[A] 524

----------
assay: GLP 28-day repeat oral dose toxicity and toxicokinetics, monkey; type: in vivo; settings: in vivo, po; Monkey Female; 20 mg/kg/day (NOAEL), daily dosing for 28 days
measurement_type: Cmax (ng/mL)
// return numeric value only (unit: ng/mL, not printed)

[Q] Item N#Cc1cnc(Nc2cc(NCC3CNCCO3)c(C(F)(F)F)cn2)cn1 (stereo not shown) [SRA737] : provide Cmax
[A] 2320
